Numbers sourced from ChEMBL document CHEMBL1201862.

Molecular target: Streptokinase A (Streptococcus pyogenes serotype M1)
Sequence (P10520 whole entry): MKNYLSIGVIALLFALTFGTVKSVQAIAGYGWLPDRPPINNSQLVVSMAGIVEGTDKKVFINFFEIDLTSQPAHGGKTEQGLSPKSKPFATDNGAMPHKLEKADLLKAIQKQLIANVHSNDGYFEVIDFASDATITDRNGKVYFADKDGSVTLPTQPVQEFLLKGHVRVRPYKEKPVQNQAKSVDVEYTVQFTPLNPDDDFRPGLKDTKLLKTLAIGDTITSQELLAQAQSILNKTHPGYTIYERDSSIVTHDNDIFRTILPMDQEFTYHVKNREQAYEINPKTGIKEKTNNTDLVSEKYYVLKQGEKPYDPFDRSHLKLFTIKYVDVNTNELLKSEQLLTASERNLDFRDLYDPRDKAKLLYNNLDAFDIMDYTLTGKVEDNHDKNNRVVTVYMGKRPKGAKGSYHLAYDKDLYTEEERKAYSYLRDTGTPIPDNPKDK
Experiment: viability-normalized secreted streptokinase activity reduction – plasminogen activation absorbance, OD405, dose response (AID 1914);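 note: secreted streptokinase activity via plasminogen activation per viability signal from cell pellet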
Assay type: functional, Streptococcus pyogenes M1 GAS
Calls of active or inactive are those of the source. Cut-off read from the data, not from the text of the source: actives have a measured EC50 and inactives only a lower limit.
property: EC50

CC12CCC(c3c(C(=O)Nc4nccs4)nn(-c4ccccc4)c31)C2(C)C (centres undefined)    28.5 µM (active)
Clc1ccc(C2C3=C(Nc4ncnn42)c2ccccc2CC3)cc1 (centres undefined)    > 150 µM (not active)
CSc1ccccc1-c1nnc(S)o1    > 150 µM (not active)

# evaluate next
EC50 for `CCOC(=O)c1sc(=S)n2c1[nH]c(=O)c1ccc(C(=O)OC)cc12` is > 150 µM (not active)
